All figures here come from ChEMBL document CHEMBL3507680.

- Measurement Notes: Human HepG2 cell viability assay in 384 well format
- Type: toxicity, cell-based
- Design: dose 125 nL, time 70.5 hour; concentration not given beside the values
- Assay Setup: HepG2 cells, read-out: Inhibition
# cytotoxicity at 70.5 h listing for each entry below
Give just the numeric value; % need not be written.

Here are 3 compounds together with their reported answers.
NCCc1cc(N2CCOCC2)nc(NC2CC2)n1 = -8.21
CC(C)c1ccc(CN2C(=O)C3(CCNCC3)Nc3ccccc32)cc1 = 105
CCCN(CC1COc2ccccc2O1)C(=O)CCn1cncn1 (stereo not given) = -1.87

Consider now this further compound.
Check the records and state cytotoxicity at 70.5 h for Cn1cc(CN2CC3(CCN(C(=O)c4ccoc4)C3)C2)cn1
-6.02

====

Known cytotoxicity at 70.5 h of a selection of compounds
- Measurement Notes: Human HepG2 cell viability assay in 384 well format
- Format: toxicity, cell-based
- Set-up: dose 125 nL, time 70.5 hour; concentration not given beside the values
- Assay Setup: HepG2 cells, read-out: Inhibition
Numbers only here, please. The scale is %.

As a guide, the following entries are already answered.
C[C@@H](CO)Nc1nccc(-c2cnc3sc(Cl)cn3c2=O)n1 = -8.27
Cn1nc(C2CNCCO2)cc1CCOc1cccc(C(F)(F)F)c1 (configuration not stated) = 7.31
CC(C)(C)NC(=O)c1cnc2n1CCCC2 = -6.71
CC(C)n1c(=O)nc2n1C(=O)N(c1ccc(Cl)cc1)C2 = -21.8

State, in one line, measured cytotoxicity at 70.5 h of CN(C)C(=O)[C@H]1C[C@H]2[C@H](CCN2Cc2ccc3c(c2)OCO3)O1
-14.7

Hello, please tell me recorded cytotoxicity at 70.5 h for this one: Cc1csc(NC(=O)c2cccnc2N2CCOCC2)n1
18.7

Output measured cytotoxicity at 70.5 h for this item: COc1ccc(N2CCCC3(C2)CN(c2cccnc2)CCO3)cc1 (configuration not stated)
-9.47

Answer with the recorded cytotoxicity at 70.5 h for the compound listed here: Cc1scc(C(=O)N2CCC3(CCCN(C)C3=O)C2)c1-c1ccccc1 (configuration not stated)
-11.2

Retrieve cytotoxicity at 70.5 h measured for Cc1cccc(COc2ccc(C(C)NS(N)(=O)=O)cc2)c1 (configuration not stated) and print it.
-8.27

Write down cytotoxicity at 70.5 h measured for item c1cnc(OCc2nnc3n2CCN(CC2CCOCC2)C3)nc1
-7.25

====

- Measurement Notes: Human HepG2 cell viability assay in 384 well format
- Type: toxicity, cell-based
- Parameters: dose 125 nL, time 70.5 hour; concentration not given beside the values
- Assay Setup: HepG2 cells, read-out: Inhibition
Measured cytotoxicity at 70.5 h, listed per entry.
Lab book: enter the figure in %, no units written.

Cc1nc(CN2CCCC(CCc3cccc(C(F)(F)F)c3)C2)co1 (configuration not stated) = -3.79
CCOC(=O)Cn1nnnc1-c1ccccc1 = -0.715
Cc1ccccc1C1CCCN1C(=O)CN1CC2(CCNCC2)OC1=O (configuration not stated) = -4.74
CN(C)CCN1CCC2(CCCN(Cc3cccn3C)C2)C1=O (configuration not stated) = -11.1
O[C@H]1CCN(Cc2ccoc2)[C@H]1Cc1cccnc1 = 30.5

Tell me cytotoxicity at 70.5 h reported for Cc1nnc(-c2cccc(C#N)c2)n1C1CCN(C(C)C)C1=O (configuration not stated)
-11.3

Dear colleague, please send me the reported cytotoxicity at 70.5 h for CN1CC(=O)N(c2ccsc2)CC12CCN(S(=O)(=O)C1CC1)C2 (configuration not stated) when you can.
-96.5

Note down cytotoxicity at 70.5 h recorded for CC(C)(C)NC(=O)CN1CCCN(Cc2ccc(C#N)cc2)CC1
-6.11

For the compound CC(=O)Nc1nc(C(=O)N2CCCC(n3nc(C)cc3C)C2)cs1 (configuration not stated) , report cytotoxicity at 70.5 h.
31.5

Look up and state reported cytotoxicity at 70.5 h for O=C(NCCn1cnnc1C1CC1)c1c(O)cc(F)cc1F
-11.9

Quote cytotoxicity at 70.5 h reported for COc1ccc(CN2CCC3(CCCNC3)C2)cc1Cn1cccn1 (configuration not stated) please.
3.97

Quickly give me recorded cytotoxicity at 70.5 h for Cc1nn(C)c(C)c1C1CCCN1C(=O)c1cnc2n[nH]c(C)c2c1 (configuration not stated)
-7.81
